FYI, the data here is from the supplement of paper PMC9112550.

Test system: Escherichia coli TOP10
PROTOCOL_DETAILS: shrunken log2 fold change of peptide-encoding DNA abundance (4.5 h post-induction vs induction); higher = less antimicrobial activity (less host growth inhibition)
CONDITIONS: time post-induction: 4.5 h; library: site-saturation at positions 5, 18, 19, 20
We use -0.03 as the dividing line for shrunken log2 fold change: on or above the line is YES, below is NO.

[
  {
    "RESIDUE_CODES": "RRIRERPPRLPRPRPRPNMMPRP",
    "TARGET_OR_SYSTEM": "Escherichia coli TOP10",
    "ANSWER_LABEL": "NO"
  },
  {
    "RESIDUE_CODES": "RRIRDRPPRLPRPRPRPYLHPRP",
    "TARGET_OR_SYSTEM": "Escherichia coli TOP10",
    "ANSWER_LABEL": "NO"
  },
  {
    "RESIDUE_CODES": "RRIRERPPRLPRPRPRPQHEPRP",
    "TARGET_OR_SYSTEM": "Escherichia coli TOP10",
    "ANSWER_LABEL": "YES"
  },
  {
    "RESIDUE_CODES": "RRIRHRPPRLPRPRPRPAQHPRP",
    "TARGET_OR_SYSTEM": "Escherichia coli TOP10",
    "ANSWER_LABEL": "NO"
  },
  {
    "RESIDUE_CODES": "RRIRCRPPRLPRPRPRPDCVPRP",
    "TARGET_OR_SYSTEM": "Escherichia coli TOP10",
    "ANSWER_LABEL": "YES"
  },
  {
    "RESIDUE_CODES": "RRIRNRPPRLPRPRPRPAMSPRP",
    "TARGET_OR_SYSTEM": "Escherichia coli TOP10",
    "ANSWER_LABEL": "NO"
  },
  {
    "RESIDUE_CODES": "RRIRSRPPRLPRPRPRPEEKPRP",
    "TARGET_OR_SYSTEM": "Escherichia coli TOP10",
    "ANSWER_LABEL": "YES"
  },
  {
    "RESIDUE_CODES": "RRIRARPPRLPRPRPRPNPTPRP",
    "TARGET_OR_SYSTEM": "Escherichia coli TOP10",
    "ANSWER_LABEL": "YES"
  },
  {
    "RESIDUE_CODES": "RRIRFRPPRLPRPRPRPQYEPRP",
    "TARGET_OR_SYSTEM": "Escherichia coli TOP10",
    "ANSWER_LABEL": "YES"
  },
  {
    "RESIDUE_CODES": "RRIRLRPPRLPRPRPRPYPVPRP",
    "TARGET_OR_SYSTEM": "Escherichia coli TOP10",
    "ANSWER_LABEL": "YES"
  },
  {
    "RESIDUE_CODES": "RRIRDRPPRLPRPRPRPHHAPRP",
    "TARGET_OR_SYSTEM": "Escherichia coli TOP10",
    "ANSWER_LABEL": "YES"
  },
  {
    "RESIDUE_CODES": "RRIRGRPPRLPRPRPRPPIAPRP",
    "TARGET_OR_SYSTEM": "Escherichia coli TOP10",
    "ANSWER_LABEL": "YES"
  },
  {
    "RESIDUE_CODES": "RRIRTRPPRLPRPRPRPTEQPRP",
    "TARGET_OR_SYSTEM": "Escherichia coli TOP10",
    "ANSWER_LABEL": "YES"
  },
  {
    "RESIDUE_CODES": "RRIRTRPPRLPRPRPRPTMPPRP",
    "TARGET_OR_SYSTEM": "Escherichia coli TOP10",
    "ANSWER_LABEL": "NO"
  },
  {
    "RESIDUE_CODES": "RRIRHRPPRLPRPRPRPFEDPRP",
    "TARGET_OR_SYSTEM": "Escherichia coli TOP10",
    "ANSWER_LABEL": "YES"
  },
  {
    "RESIDUE_CODES": "RRIRGRPPRLPRPRPRPRCCPRP",
    "TARGET_OR_SYSTEM": "Escherichia coli TOP10",
    "ANSWER_LABEL": "YES"
  },
  {
    "RESIDUE_CODES": "RRIRGRPPRLPRPRPRPNNKPRP",
    "TARGET_OR_SYSTEM": "Escherichia coli TOP10",
    "ANSWER_LABEL": "YES"
  },
  {
    "RESIDUE_CODES": "RRIRVRPPRLPRPRPRPREDPRP",
    "TARGET_OR_SYSTEM": "Escherichia coli TOP10",
    "ANSWER_LABEL": "YES"
  },
  {
    "RESIDUE_CODES": "RRIRIRPPRLPRPRPRPWAMPRP",
    "TARGET_OR_SYSTEM": "Escherichia coli TOP10",
    "ANSWER_LABEL": "NO"
  },
  {
    "RESIDUE_CODES": "RRIRCRPPRLPRPRPRPFPTPRP",
    "TARGET_OR_SYSTEM": "Escherichia coli TOP10",
    "ANSWER_LABEL": "NO"
  },
  {
    "RESIDUE_CODES": "RRIRCRPPRLPRPRPRPQWMPRP",
    "TARGET_OR_SYSTEM": "Escherichia coli TOP10",
    "ANSWER_LABEL": "NO"
  },
  {
    "RESIDUE_CODES": "RRIRSRPPRLPRPRPRPFEFPRP",
    "TARGET_OR_SYSTEM": "Escherichia coli TOP10",
    "ANSWER_LABEL": "NO"
  },
  {
    "RESIDUE_CODES": "RRIRGRPPRLPRPRPRPRVAPRP",
    "TARGET_OR_SYSTEM": "Escherichia coli TOP10",
    "ANSWER_LABEL": "YES"
  },
  {
    "RESIDUE_CODES": "RRIRFRPPRLPRPRPRPEWWPRP",
    "TARGET_OR_SYSTEM": "Escherichia coli TOP10",
    "ANSWER_LABEL": "YES"
  },
  {
    "RESIDUE_CODES": "RRIRDRPPRLPRPRPRPLEVPRP",
    "TARGET_OR_SYSTEM": "Escherichia coli TOP10",
    "ANSWER_LABEL": "YES"
  },
  {
    "RESIDUE_CODES": "RRIRGRPPRLPRPRPRPDPHPRP",
    "TARGET_OR_SYSTEM": "Escherichia coli TOP10",
    "ANSWER_LABEL": "YES"
  },
  {
    "RESIDUE_CODES": "RRIRERPPRLPRPRPRPMMIPRP",
    "TARGET_OR_SYSTEM": "Escherichia coli TOP10",
    "ANSWER_LABEL": "NO"
  },
  {
    "RESIDUE_CODES": "RRIRARPPRLPRPRPRPITKPRP",
    "TARGET_OR_SYSTEM": "Escherichia coli TOP10",
    "ANSWER_LABEL": "NO"
  },
  {
    "RESIDUE_CODES": "RRIRGRPPRLPRPRPRPFAVPRP",
    "TARGET_OR_SYSTEM": "Escherichia coli TOP10",
    "ANSWER_LABEL": "YES"
  },
  {
    "RESIDUE_CODES": "RRIRRRPPRLPRPRPRPIRKPRP",
    "TARGET_OR_SYSTEM": "Escherichia coli TOP10",
    "ANSWER_LABEL": "NO"
  },
  {
    "RESIDUE_CODES": "RRIRFRPPRLPRPRPRPDLCPRP",
    "TARGET_OR_SYSTEM": "Escherichia coli TOP10",
    "ANSWER_LABEL": "NO"
  }
]

----------
Tested on: Escherichia coli TOP10;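 further: peptides expressed intracellularly from a pBAD plasmid library in pooled LB shake-flask culture, induced with 0.3% L-arabinose, DNA abundance read by NGS, three biological replicates, DESeq2 with apeglm shrinkage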
PROTOCOL_DETAILS: shrunken log2 fold change of peptide-encoding DNA abundance (4.5 h post-induction vs induction); higher = less antimicrobial activity (less host growth inhibition)
CONDITIONS: time post-induction: 4.5 h; library: site-saturation at positions 5, 18, 19, 20
READOUT_NAME: shrunken log2 fold change

[
  {
    "RESIDUE_CODES": "RRIRWRPPRLPRPRPRPQNTPRP",
    "READOUT_NAME": "shrunken log2 fold change",
    "RECORDED_NUMBER": 0.591
  },
  {
    "RESIDUE_CODES": "RRIRWRPPRLPRPRPRPYHNPRP",
    "READOUT_NAME": "shrunken log2 fold change",
    "RECORDED_NUMBER": -0.296
  },
  {
    "RESIDUE_CODES": "RRIRRRPPRLPRPRPRPKQFPRP",
    "READOUT_NAME": "shrunken log2 fold change",
    "RECORDED_NUMBER": -0.00581
  },
  {
    "RESIDUE_CODES": "RRIRLRPPRLPRPRPRPIHYPRP",
    "READOUT_NAME": "shrunken log2 fold change",
    "RECORDED_NUMBER": -0.186
  },
  {
    "RESIDUE_CODES": "RRIRQRPPRLPRPRPRPGAAPRP",
    "READOUT_NAME": "shrunken log2 fold change",
    "RECORDED_NUMBER": 0.553
  },
  {
    "RESIDUE_CODES": "RRIRKRPPRLPRPRPRPTINPRP",
    "READOUT_NAME": "shrunken log2 fold change",
    "RECORDED_NUMBER": -0.184
  },
  {
    "RESIDUE_CODES": "RRIRYRPPRLPRPRPRPIWDPRP",
    "READOUT_NAME": "shrunken log2 fold change",
    "RECORDED_NUMBER": -0.13
  },
  {
    "RESIDUE_CODES": "RRIRSRPPRLPRPRPRPMDEPRP",
    "READOUT_NAME": "shrunken log2 fold change",
    "RECORDED_NUMBER": 0.0216
  }
]
